Would you mind telling me the reported Kb of each entry?
Target: histamine H3 receptor (Cavia porcellus, UniProt Q9JI35)
Construct: the longitudinal muscle layer and adhering myenteric plexus was teased away; from tissue; host or cells: guinea pig ileum longitudinal muscle with adhering myenteric plexus (intact tissue strips)
Sequence (Q9JI35 whole entry): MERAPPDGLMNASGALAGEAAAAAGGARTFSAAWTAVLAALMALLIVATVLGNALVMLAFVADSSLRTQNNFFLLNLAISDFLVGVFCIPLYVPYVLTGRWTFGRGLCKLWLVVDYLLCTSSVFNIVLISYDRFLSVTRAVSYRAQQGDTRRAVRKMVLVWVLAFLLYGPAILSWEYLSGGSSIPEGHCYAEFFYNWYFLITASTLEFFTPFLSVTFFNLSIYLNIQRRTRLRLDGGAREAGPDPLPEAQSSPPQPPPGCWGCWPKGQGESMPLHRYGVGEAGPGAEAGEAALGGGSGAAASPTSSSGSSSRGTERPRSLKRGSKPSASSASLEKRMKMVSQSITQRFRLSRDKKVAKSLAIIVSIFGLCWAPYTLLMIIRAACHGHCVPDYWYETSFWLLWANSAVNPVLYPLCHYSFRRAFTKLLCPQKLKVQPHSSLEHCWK
Test: Guinea pig ileal longitudinal muscle, myenteric plexus functional assay (antagonism of R-(α)-methylhistamine inhibition of electrically-stimulated contraction)
Format: cell-based
Details: guinea pig ileum; antagonist affinity from rightward shift of R-(α)-methylhistamine E/[A] curves (Schild); typical variance ±0.15 log units; read-out: pKB (functional assay) - ileum (converted)
Give bare numbers, in µM.

Below: 3 compounds and their reported Kb.
                                   compound                               measured_on  measure_unit  measured_value
0           O=C1CNS(=O)(=O)N1CCCCc1c[nH]cn1  histamine H3 receptor (Cavia porcellus, UniProt Q9JI35)            µM             2.4
1                 O=S1(=O)NCCN1CCc1c[nH]cn1  histamine H3 receptor (Cavia porcellus, UniProt Q9JI35)            µM            0.24
2  C[C@H]1CN(CCc2c[nH]cn2)[S+]([O-])N1 (stereo partly shown)  histamine H3 receptor (Cavia porcellus, UniProt Q9JI35)            µM           0.891

Moving on to another compound below.
Name the recorded Kb of the item O=S1(=O)NCCN1CCCc1c[nH]cn1 in your answer.
0.355
